Measured values drawn from PubChem BioAssay AID1159580 for this set.

Hi there, I'd appreciate the recorded normalized growth for every entry that follows.
# assay.name: chemical genetic growth profiling, strain panel (AID 1159580);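 note: tested at 20 µM; growth read once vehicle control cultures reached saturation at 30 °C; 1 = growth at the plate median or of vehicle wells; lower values mean less growth of the strain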
# test.parameters: S. cerevisiae deletion strains, growth OD, locus YDR001C, strain nth1, active compounds read low
Out of some 5,500 compounds screened, about 2,000 (36%) were called active. Another 18% or so got no clear call; they are omitted. The list shows a part of the results.
Give bare numbers.

Some molecules with known normalized growth results, for comparison:
COc1cccc(-c2cc(=O)c3ccc(OC)cc3o2)c1 ... 0.935
CC1=C2C(=CO[C@H](C)[C@H]2C)C(=O)C(C(=O)O)=C1O ... 0.98
CN(N=O)C(=O)N[C@@H]1[C@@H](O)[C@H](O)[C@@H](CO)O[C@@H]1O ... 0.978

Would you kindly look at the next entry?
// query Name the recorded normalized growth of the item FC(F)(F)C(Cl)Br (centres undefined) in your answer.
// result 1.01

----------
# assay.name: chemical genetic growth profiling, strain panel (AID 1159580);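 note: tested at 20 µM; growth read once vehicle control cultures reached saturation at 30 °C; 1 = growth at the plate median or of vehicle wells; lower values mean less growth of the strain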
# test.parameters: S. cerevisiae deletion strains, growth OD, locus YLR371W, strain rom2
About 2,000 (36%) of roughly 5,500 compounds were called active. About 18% were inconclusive and are not listed. No stated cut-off is given here; in the data, active means normalized growth mostly below about 0.91 (no sharp cut-off); inconclusive means no clear call, values can overlap the other calls; inactive means mostly above about 0.92. Some of the results follow.
Your response should consist of one outcome taken from active, inactive

O=c1oc2ccccc2c(O)c1Cc1c(O)c2ccccc2oc1=O ... inactive
CC(=O)OC1CC2C(C)(C)CCCC2(C)C2CCC3(C)C(c4ccoc4)OC(=O)C4OC43C12C (configuration not stated) ... inactive
CCN(CCCCOC(=O)c1ccc(OC)c(OC)c1)C(C)Cc1ccc(OC)cc1 (configuration not stated) ... inactive
NS(=O)(=O)c1cc2c(cc1C(F)(F)F)NCNS2(=O)=O ... inactive
C=CCCCCCCCCCCCC(O)CC(O)CO (configuration not stated) (tested in a mixture with another compound) ... active

// switching to the query molecule
// query In this assay, the call recorded for C=C1C(N)CC2CC1C2(C)C (configuration not stated) was what?
// result inactive

----------
# assay.name: chemical genetic growth profiling, strain panel (AID 1159580);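 note: tested at 20 µM; growth read once vehicle control cultures reached saturation at 30 °C; 1 = growth at the plate median or of vehicle wells; lower values mean less growth of the strain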
# test.parameters: S. cerevisiae deletion strains, growth OD, locus YFR010W, strain ubp6, active compounds read low
Out of some 5,500 compounds screened, about 2,000 (36%) were called active. About 18% were inconclusive and are not listed. This is one part of the list.
Hi there, I'd appreciate the recorded normalized growth for every entry that follows.
Numbers only.

Each compound below has a recorded value; state its normalized growth.
1. CC(=O)OCC(=O)[C@H]1CCC2C3CC=C4C[C@@H](O)CC[C@]4(C)C3CC[C@@]21C (some centres undefined)
2. CN1CCN2c3ccccc3Cc3ccccc3C2C1 (centres undefined)
3. COc1ccc(-c2cc(=O)c3c(OC)c(OC)c(OC)c(OC)c3o2)cc1
4. CC(=O)[C@H]1CCC2C3CC=C4C[C@@H](OC(=O)CCC(=O)O)CC[C@]4(C)C3CC[C@@]21C (some centres undefined)
5. COc1cc2c(cc1OC)-c1cc3ccc(OC)c(OC)c3c[n+]1CC2
6. CC1=NCCc2c1[nH]c1cc(O)ccc21
7. O=c1oc2ccccc2c(O)c1Cc1c(O)c2ccccc2oc1=O

// result
1: 0.976; 2: 1.01; 3: 0.967; 4: 0.966; 5: 0.969; 6: 0.983; 7: 1.02

Each compound below has a recorded value; state its normalized growth.
1. COc1ccc(-c2cc(=O)c3ccccc3o2)cc1OC
2. CC(=O)Oc1cc(-c2coc3cc(OC(C)=O)c(OC(C)=O)c(OC(C)=O)c3c2=O)cc(OC(C)=O)c1OC(C)=O
3. CCC(CCC(C)[C@H]1CCC2C3CC=C4C[C@@H](O)CC[C@]4(C)C3CC[C@@]21C)C(C)C (some centres undefined)
4. CCCCOc1cc(CC2CNC(=O)N2)ccc1OC (centres undefined)
5. O=c1c2ccccc2[se]n1-c1ccccc1
6. COc1c2c(cc3c1OCO3)CC[N+](C)=C2
7. CCC(/C=C/[C@@H](C)[C@H]1CCC2C3CC=C4C[C@@H](O)CC[C@]4(C)C3CC[C@@]21C)C(C)C (some centres undefined)
8. CC(=O)OCC(=O)[C@@]1(O)CCC2C3CC[C@@H]4C[C@H](O)CC[C@]4(C)C3C(=O)C[C@@]21C (some centres undefined)

// result
1: 0.889; 2: 0.881; 3: 1.02; 4: 0.994; 5: 0.07; 6: 0.996; 7: 0.997; 8: 1.01

Each compound below has a recorded value; state its normalized growth.
1. CC(=O)Nc1cccc(O)c1
2. CCn1cc(C(=O)O)c(=O)c2cc(F)c(N3CCNCC3)cc21

// result
1. 0.994
2. 0.972

Each compound below has a recorded value; state its normalized growth.
1. COc1cc2c3cc1Oc1cc(ccc1O)C[C@@H]1c4c(cc(OC)c(O)c4Oc4ccc(cc4)C[C@@H]3N(C)CC2)CC[N+]1(C)C
2. CC1(C)O[C@@H]2CC3C4CCC5=CC(=O)C=C[C@]5(C)[C@@]4(F)[C@@H](O)C[C@]3(C)[C@]2(C(=O)CO)O1 (some centres undefined)

// result
1. 0.989
2. 1.01
